Experiment: Example 6 pharmacokinetics assay for PKPD study (plasma, tumor, liver)
Format: in vivo, BALB/c nude mice
Conditions: mouse, plasma, po; 10 mg/kg, single dose; 12 h; read-out: Concentration in Plasma (mean ± SEM)
outcome.measure: concentration at 12 h (ng/mL)

P: Cn1nc(N2CCC(=O)NC2=O)c2cc(F)c(C3CCC(N4CCC5(CC4)CC(n4cnc6ccc(Oc7c(F)ccc(NS(=O)(=O)C8CCCC8)c7C#N)cc6c4=O)C5)CC3)cc21 (single isomer, unassigned)
Q: CCN(C)S(=O)(=O)Nc1ccc(F)c(Oc2ccc3ncc([C@@H]4COC5(CCN(C6CCC(c7cc8c(cc7F)c(N7CCC(=O)NC7=O)nn8C)CC6)CC5)C4)nc3c2)c1C#N (single isomer, unassigned)
R: CCN(C)S(=O)(=O)Nc1ccc(F)c(Oc2ccc3ncn(C4CC5(CCN(C6CCC(c7cc8c(cc7F)c(N7CCC(=O)NC7=O)nn8C)CC6F)CC5)C4)c(=O)c3c2)c1C#N (single isomer, unassigned)
With regard to concentration at 12 h, arrange the entries in ascending order, please. Write the labels out in the order the request specifies.
P, Q, R
